# Test system: SK-OV-3 ovarian
# test_details: NCI tumour cell line growth inhibition, 48 h
Where a SMILES comes first, the peptide text is derived from it. [ ]: non-standard residue; d: D form. The star is where a group is joined. Cbz = O=C(OCc1ccccc1)*; Boc = CC(C)(C)OC(=O)*; Aib = CC(C)(N)C(=O)O; OBn = c1ccc(CO*)cc1; OtBu = CC(C)(C)O*; βAla = NCCC(=O)O

molecule: CC(=O)Oc1cc(C)ccc1[C@]1(C)CC[C@H](C)/C1=C\Br
system_under_test: SK-OV-3 ovarian
TGI: 7.65 µM
//
molecule: N#CCCc1nc2ccc(Br)cc2c(=O)n1CCO
system_under_test: SK-OV-3 ovarian
TGI: > 100 µM
//
molecule: CC(C)(C)OC(=O)CC(NC(=O)OC(C)(C)C)C(=O)NC(CCCCNC(=O)OCc1ccccc1)C(=O)NC(C)(C)C(=O)NCCC(=O)OCc1ccccc1 (centres undefined) (Boc-D(OtBu)K(Cbz)[Aib][βAla]-OBn; configuration not given here)
system_under_test: SK-OV-3 ovarian
TGI: > 100 µM
//
molecule: O=C(O)c1ccccc1/C=N\NC1=NCCCCN1
system_under_test: SK-OV-3 ovarian
TGI: > 100 µM

###

Recorded TGI by entry
# System: MDA-MB-231 breast
# test_details: NCI tumour cell line growth inhibition, 48 h

structure_notation: COc1cc(-c2nc3ccc(C)cc3[nH]2)ccc1OCC(=O)N=Nc1c(O)[nH]c2ccccc12
unit_label: µM
limit_operator: =
TGI: 3.1
--
structure_notation: OCCN=C1Nc2ccc(Cl)cc2C(=S)N2CSC[C@@H]12
unit_label: µM
limit_operator: >
TGI: 100
--
structure_notation: CC1(C)C=CC[C@]2(C)[C@H]3CC[C@@H]4[C@H]5[C@H](C(=O)/C=C/c6cccnc6)CC[C@]5(CO)CC[C@@]4(C)[C@]3(C)CC[C@@H]12
unit_label: µM
limit_operator: =
TGI: 2.67

###

# Tested on: RXF 393 renal
# test_details: NCI tumour cell line growth inhibition, 48 h
Property: TGI; scope: individual molecules
measured_property: TGI (µM)

molecule: Nc1c(C(=O)c2ccccc2)sc2nc(-c3cccs3)ccc12
system_under_test: RXF 393 renal
limit_operator: =
numeric_value: 1.63

molecule: COc1cc2c(cc1C)NC(=O)/C2=C\c1cc(OC)c(OC)c(OC)c1
system_under_test: RXF 393 renal
limit_operator: =
numeric_value: 36.1

molecule: O=C1NC(N/N=C\c2ccccc2)=N/C1=C/c1ccc(Cl)cc1
system_under_test: RXF 393 renal
limit_operator: =
numeric_value: 47.3

molecule: CC1=CC[C@@H]2CC[C@]3(C)[C@H](CC[C@@H]4[C@@]5(C)CCCNC(C)(C)[C@@H]5CC[C@]43C)[C@H]2[C@@H]1C
system_under_test: RXF 393 renal
limit_operator: =
numeric_value: 3.1

molecule: O=C1C(Br)=C[C@H]2C3C=CC(Br)(C3=O)[C@@H]12 (stereo partly specified)
system_under_test: RXF 393 renal
limit_operator: =
numeric_value: 27.3

molecule: S=C(Nc1ccc(-c2nc3ccccc3[nH]2)cc1)NC1CCCCC1
system_under_test: RXF 393 renal
limit_operator: =
numeric_value: 74

molecule: CCOc1ccccc1NC(=O)/C=C1\NC(=O)CS1
system_under_test: RXF 393 renal
limit_operator: >
numeric_value: 100

molecule: Cc1[nH]c(-c2ccccc2)c(-c2ccc(Cl)cc2)c1C(=O)ONC(=O)c1ccccc1
system_under_test: RXF 393 renal
limit_operator: =
numeric_value: 6.69

molecule: CCCCN(c1ccccc1)c1ncnc2c1cnn2C
system_under_test: RXF 393 renal
limit_operator: =
numeric_value: 89.4

molecule: COc1cc(-c2cnn(C)c2)ccc1Nc1ncc2ccnc(N[C@@H](C)C(C)(C)C)c2n1
system_under_test: RXF 393 renal
limit_operator: >
numeric_value: 100

molecule: COc1ccc(OC)c2cc(Cc3ccc(N(C)C)cc3)c(=O)c(Cc3ccc(N(C)C)cc3)cc12
system_under_test: RXF 393 renal
limit_operator: >
numeric_value: 100
